- Tested on: eosinophilia in airway of Wistar rats induced by DK-PGD2
- test_name: Eosinophilia in airway of Wistar rats induced by DK-PGD2, cell count in BALF
- Type: in vivo
- condition_parameters: Wistar rats, 10 mg/Kg preventive dose 0.5 h before DK-PGD2, BALF after 24 h
property_measured: Eosinophilic granulocyte C (10^5/ml)

Summary line: Cc1c(C2CCC(NC(=O)c3ccc4ccccc4n3)CC2)c2cc(F)ccc2n1CC(=O)O.Cl (single isomer, unassigned) , eosinophilia in airway of Wistar rats induced by DK-PGD2, reported Eosinophilic granulocyte C (10^5/ml) = 0.0568 ± 0.02^## 10^5/ml

Summary line: Cc1c(Cc2ccc3ccccc3n2)c2cc(F)ccc2n1CC(=O)O [OC000459, reference compound] , eosinophilia in airway of Wistar rats induced by DK-PGD2, reported Eosinophilic granulocyte C (10^5/ml) = 0.1192 ± 0.03^## 10^5/ml

Summary line: Cc1c(C2CCN(S(=O)(=O)c3ccc(F)cc3)CC2)c2cc(F)ccc2n1CC(=O)O , eosinophilia in airway of Wistar rats induced by DK-PGD2, reported Eosinophilic granulocyte C (10^5/ml) = 0.0804 ± 0.02^## 10^5/ml

Summary line: Cc1c(C2CCC(NS(=O)(=O)c3ccc(F)cc3)CC2)c2cc(F)ccc2n1CC(=O)O (single isomer, unassigned) [Example 27b] , eosinophilia in airway of Wistar rats induced by DK-PGD2, reported Eosinophilic granulocyte C (10^5/ml) = 0.09597 ± 0.04^## 10^5/ml

###

Consider the following compounds; for each one, report its AUC(0-inf).
- test_name: Detection of PK in rats
- Type: in vivo
- condition_parameters: rat, po, p.o. (gavage), 1 mg/Kg, plasma
Write the number in ng·h/mL without appending the unit.

Summary for this compound, Cc1c(C2CCC(NC(=O)c3ccc4ccccc4n3)CC2)c2cc(F)ccc2n1CC(=O)O.Cl (single isomer, unassigned) [Example 6a] : AUC(0-inf) is 5940

Summary for this compound, Cc1c(C2CCN(S(=O)(=O)c3ccc(F)cc3F)CC2)c2cc(F)ccc2n1CC(=O)O [Example 33] : AUC(0-inf) is 4270

Summary for this compound, Cc1c(C2CCC(NS(=O)(=O)c3ccc(F)cc3)CC2)c2cc(F)ccc2n1CC(=O)O (single isomer, unassigned) [Example 27b] : AUC(0-inf) is 1640

Summary for this compound, Cc1c(C2CCN(S(=O)(=O)c3ccc(F)cc3)CC2)c2cc(F)ccc2n1CC(=O)O [Example 24] : AUC(0-inf) is 1890

###

- test_name: Metabolic stability in rat liver microsomal
- Format: in vitro ADME
- condition_parameters: liver microsomes, pH 7.4, 37° C., pH7.4, intrinsic clearance, read-out: Clearance rate
property_measured: CLint scaled (mL/min/kg)
Write the number in mL/min/kg without appending the unit.

Summary for this compound, Cc1c(C2CCN(S(=O)(=O)c3ccc(F)cc3)CC2)c2cc(F)ccc2n1CC(=O)O [Example 24] : CLint scaled is 13.8

###

Consider the following compounds; for each one, report its AUC(0-inf).
- test_name: Detection of PK in rats
- Type: in vivo
- condition_parameters: rat, iv, 0.4 mg/Kg, plasma
- Protocol: The analysis was performed using a 4000 QTRAPP series LC/MS/MS mass spectrometer equipped with Agilent 1200 dual injection pumps, 1290 automatic sampler, column oven and ESI source, detecting by the negative ion MRM mode. […]
Write the number in ng·h/mL without appending the unit.

Summary for this compound, Cc1c(C2CCN(S(=O)(=O)c3ccc(F)cc3F)CC2)c2cc(F)ccc2n1CC(=O)O : AUC(0-inf) is 2500

Summary for this compound, Cc1c(C2CCN(S(=O)(=O)c3ccc(F)cc3)CC2)c2cc(F)ccc2n1CC(=O)O : AUC(0-inf) is 1030

Summary for this compound, Cc1c(C2CCC(NC(=O)c3ccc4ccccc4n3)CC2)c2cc(F)ccc2n1CC(=O)O.Cl (single isomer, unassigned) : AUC(0-inf) is 2780

Summary for this compound, Cc1c(C2CCC(NS(=O)(=O)c3ccc(F)cc3)CC2)c2cc(F)ccc2n1CC(=O)O (single isomer, unassigned) [Example 27b] : AUC(0-inf) is 920
